targetEntity: HIV-1 nucleocapsid protein (NC) (HIV-1 NL4-3, UniProt P12493 378-432)
assaySummary: ITC
outcomeMeasure: pKd
Interpret pKd as the negative base-10 log of the concentration measured in mol/L.

The binder listed as UGUGCCCUUCU (ssRNA) [U5GGU (G112U)] has a reported pKd of 7.09
